# Tested on: Trypanosoma brucei
# protocol: In vitro dose required to inhibit growth of Trypanosoma brucei
# Assay type: functional
# test parameters: read-out: ED50 (the source's name)
result type: EC50 (µM)
Give the number; µM is assumed, so skip it.

-- ask State its EC50 for this compound: CCN(CC)C1=NS(=O)(=O)C(C2CC(c3c(C)cc(C)cc3C)=NO2)=C1c1ccc(OC)cc1 (stereo unspecified)
-- reply 10

---

# Tested on: Protein farnesyltransferase (Trypanosoma brucei)
# protocol: Percentage in vitro inhibition of recombinant Trypanosoma brucei protein farnesyltransferase at 2 uM
result type: inhibition (%)
Respond with the bare value in %.

-- ask Identify measured inhibition associated with CCN(CC)C1=NS(=O)(=O)C(C2CC(c3ccc(OC)cc3)=NO2)=C1c1ccc(OC)cc1 (configuration not stated)
-- reply 8

-- ask Give recorded inhibition. CCN(CC)C1=NS(=O)(=O)C(C2CC(c3c(Cl)cccc3Cl)=NO2)=C1c1ccc(OC)cc1 (configuration not stated)
-- reply 32

-- ask Note inhibition for the compound shown: CCN(CC)C1=NS(=O)(=O)C(C2CC(c3ccc([N+](=O)[O-])cc3)=NO2)=C1c1ccc(OC)cc1 (configuration not stated)
-- reply 2

-- ask Provide inhibition value for the following compound: CCN(CC)C1=NS(=O)(=O)C(C2CC(c3ccc(Cl)cc3)=NO2)=C1c1ccc(OC)cc1 (configuration not stated)
-- reply 0

-- ask Supply measured inhibition of CCN(CC)C1=NS(=O)(=O)C(C2CC(c3c(C)c(C)c(C)c(C)c3C)=NO2)=C1c1ccc(OC)cc1 (configuration not stated) in your reply.
-- reply 13

More entries:
-- ask Tell us which inhibition value is on record for CCN(CC)C1=NS(=O)(=O)C(C2CC(c3c(C)cccc3C)=NO2)=C1c1ccc(OC)cc1 (configuration not stated)
-- reply 8

-- ask Kindly indicate its recorded inhibition. Item: CCN(CC)C1=NS(=O)(=O)C(C2CC(c3c(C)cc(C)cc3C)=NO2)=C1c1ccc(OC)cc1 (configuration not stated)
-- reply 50

---

# assayed target: geranylgeranyltransferase type-I (Rattus norvegicus) (UniProt P53610+Q04631)
# protocol: Percentage in vitro inhibition of rat protein geranylgeranyltransferase type-I at 100 uM
# Type: protein-complex assay
result type: inhibition (%)
Just the number in %, nothing appended.

-- ask Supply measured inhibition of `CCN(CC)C1=NS(=O)(=O)C(Sc2ccccc2)=C1c1ccc(OC)cc1` in your reply.
-- reply 17

-- ask Find the measured inhibition of `CCN(CC)C1=NS(=O)(=O)C(SC2CCCCC2)=C1c1ccc(OC)cc1` and report it.
-- reply 20

Next:
-- ask Provide only the value of recorded inhibition for `CCN(CC)C1=NS(=O)(=O)C(c2ccccn2)=C1c1ccc(OC)cc1`
-- reply 7

---

# assayed target: geranylgeranyltransferase type-I (Rattus norvegicus) (UniProt P53610+Q04631)
# protocol: Percentage in vitro inhibition of rat protein geranylgeranyltransferase type-I at 50 uM
# Format: protein-complex assay
result type: inhibition

Known inhibition results, listed for orientation:
-- ask Kindly indicate its recorded inhibition. Item: CCN(CC)C1=NS(=O)(=O)C(C2CC(c3ccc(OC)cc3)=NO2)=C1c1ccc(OC)cc1 (stereo not given)
-- reply 17%

-- ask Give a short answer stating reported inhibition for CCN(CC)C1=NS(=O)(=O)C(C2CC(c3ccc([N+](=O)[O-])cc3)=NO2)=C1c1ccc(OC)cc1 (stereo not given) .
-- reply 8%

-- ask Hello, please tell me recorded inhibition for this one: CCOC1C(c2c(C)cc(C)cc2C)=NOC1C1=C(c2ccc(OC)cc2)C(N(CC)CC)=NS1(=O)=O (stereo not given)
-- reply 12%

-- ask Give the value of inhibition reported for the following: CCN(CC)C1=NS(=O)(=O)C(C2CC(c3c(C)c(Cl)c(C)c(Cl)c3C)=NO2)=C1c1ccc(OC)cc1 (stereo not given)
-- reply 7%

-- ask State its inhibition for this molecule: `CCN(CC)C1=NS(=O)(=O)C(c2cc(-c3c(C)cc(C)cc3C)no2)=C1c1ccc(OC)cc1`
-- reply 11%

-- ask Give the reported inhibition for this molecule. CCN(CC)C1=NS(=O)(=O)C(C2CC(c3c(C)cccc3C)=NO2)=C1c1ccc(OC)cc1 (stereo not given)
-- reply 17%

-- ask Give inhibition for CCN(CC)C1=NS(=O)(=O)C(C2CC(c3c(Cl)cccc3Cl)=NO2)=C1c1ccc(OC)cc1 (stereo not given)
-- reply 45%

-- ask For the molecule CCN(CC)C1=NS(=O)(=O)C(C2CC(c3ccc(Cl)cc3)=NO2)=C1c1ccc(OC)cc1 (stereo not given) , give its reported inhibition.
-- reply 20%

Continuing:
-- ask Consider the molecule CCN(CC)C1=NS(=O)(=O)C(C2CC(c3ccccc3C)=NO2)=C1c1ccc(OC)cc1 (stereo not given) and give its recorded inhibition.
-- reply 0%

-- ask In one line, give reported inhibition of the entry CCN(CC)C1=NS(=O)(=O)C(C2CC(c3c(C)cc(C)cc3C)=NO2)=C1c1ccc(OC)cc1 (stereo not given) .
-- reply 25%

---

# assayed target: Protein farnesyltransferase (Rattus norvegicus) (UniProt Q04631+Q02293)
# protocol: Percentage in vitro inhibition of rat protein farnesyltransferase at 50 uM
# Type: protein-complex assay
result type: inhibition (%)
Express it in %; write the number only.

Here is how some compounds turned out for inhibition.
-- ask Answer with reported inhibition of CCN(CC)C1=NS(=O)(=O)C(C2CC(c3c(C)c(C)c(C)c(C)c3C)=NO2)=C1c1ccc(OC)cc1 (stereo unspecified)
-- reply 7

-- ask For the compound CCN(CC)C1=NS(=O)(=O)C(C2CC(c3c(C)c(Cl)c(C)c(Cl)c3C)=NO2)=C1c1ccc(OC)cc1 (stereo unspecified) , report inhibition.
-- reply 2

Next:
-- ask Tell me its inhibition given CCN(CC)C1=NS(=O)(=O)C(C2CC(c3c(C)cc(C)cc3C)=NO2)=C1c1ccc(OC)cc1 (stereo unspecified) as the entry.
-- reply 21

-- ask Kindly indicate its recorded inhibition. Item: `CCN(CC)C1=NS(=O)(=O)C(c2cc(-c3c(C)cc(C)cc3C)no2)=C1c1ccc(OC)cc1`
-- reply 8

-- ask Given the compound CCN(CC)C1=NS(=O)(=O)C(C2CC(c3ccc([N+](=O)[O-])cc3)=NO2)=C1c1ccc(OC)cc1 (stereo unspecified) , write its reported inhibition.
-- reply 18

-- ask Report measured inhibition; entry is CCN(CC)C1=NS(=O)(=O)C(C2CC(c3c(C)cccc3C)=NO2)=C1c1ccc(OC)cc1 (stereo unspecified)
-- reply 22

-- ask Please report inhibition for the following compound: CCN(CC)C1=NS(=O)(=O)C(C2CC(c3ccc(Cl)cc3)=NO2)=C1c1ccc(OC)cc1 (stereo unspecified)
-- reply 8

-- ask # return recorded inhibition for input CCN(CC)C1=NS(=O)(=O)C(C2CC(c3c(Cl)cccc3Cl)=NO2)=C1c1ccc(OC)cc1 (stereo unspecified)
-- reply 14

-- ask // fetch inhibition given entry CCN(CC)C1=NS(=O)(=O)C(C2CC(c3ccccc3C)=NO2)=C1c1ccc(OC)cc1 (stereo unspecified)
-- reply 22

-- ask Given CCN(CC)C1=NS(=O)(=O)C(C2CC(c3ccc(OC)cc3)=NO2)=C1c1ccc(OC)cc1 (stereo unspecified) , respond with its inhibition.
-- reply 13

-- ask Please report the measured inhibition for CCOC1C(c2c(C)cc(C)cc2C)=NOC1C1=C(c2ccc(OC)cc2)C(N(CC)CC)=NS1(=O)=O (stereo unspecified)
-- reply 9

---

# System: Protein farnesyltransferase (Trypanosoma brucei)
# protocol: Percentage in vitro inhibition of recombinant Trypanosoma brucei protein farnesyltransferase at 100 uM
Each item that follows carries a reported inhibition.
Response body: numeric value in %, unit text excluded.

Past entries and their recorded results:
-- ask Report measured inhibition; entry is `CCN(CC)C1=NS(=O)(=O)C(Sc2ccccc2)=C1c1ccc(OC)cc1`
-- reply 62

-- ask Give the value of inhibition reported for the following: `CCN(CC)C1=NS(=O)(=O)C(SC/C=C(\C)CC/C=C(/C)CCC=C(C)C)=C1c1ccc(OC)cc1`
-- reply 25

Turning now to a further compound:
-- ask Tell me measured inhibition for `CCN(CC)C1=NS(=O)(=O)C(c2ccccc2)=C1c1ccc(OC)cc1` please.
-- reply 13

---

# assayed target: Protein farnesyltransferase (Rattus norvegicus) (UniProt Q04631+Q02293)
# protocol: Percentage in vitro inhibition of rat protein farnesyltransferase at 100 uM
# Assay type: protein-complex assay
result type: inhibition (%)
Note: unit % is implicit; provide only the numeric part.

Completed entries (count: 2):
-- ask # lookup: Protein farnesyltransferase (Rattus norvegicus) (UniProt Q04631+Q02293) inhibition, key = `CCN(CC)C1=NS(=O)(=O)C(c2ccccn2)=C1c1ccc(OC)cc1`
-- reply 3

-- ask Look up Protein farnesyltransferase (Rattus norvegicus) (UniProt Q04631+Q02293) data: inhibition of `CCN(CC)C1=NS(=O)(=O)C(C)=C1c1ccc(OC)cc1` , then report it.
-- reply 27

Continuing:
-- ask Give inhibition only, for `CCN(CC)C1=NS(=O)(=O)C(SC/C=C(\C)CC/C=C(/C)CCC=C(C)C)=C1c1ccc(OC)cc1` , using Protein farnesyltransferase (Rattus norvegicus) (UniProt Q04631+Q02293) data.
-- reply 0

-- ask With Protein farnesyltransferase (Rattus norvegicus) (UniProt Q04631+Q02293) as the test system, provide measured inhibition for this molecule: `CCN(CC)C1=NS(=O)(=O)C(c2cn(S(=O)(=O)c3ccccc3)c3ccccc23)=C1c1ccc(OC)cc1`
-- reply 5

-- ask # assay system Protein farnesyltransferase (Rattus norvegicus) (UniProt Q04631+Q02293): give inhibition of `CCN(CC)C1=NS(=O)(=O)C(SC)=C1c1ccc(OC)cc1`
-- reply 5

-- ask State inhibition (Protein farnesyltransferase (Rattus norvegicus) (UniProt Q04631+Q02293)) of `CCN(CC)C1=NS(=O)(=O)C(SC2CCCCC2)=C1c1ccc(OC)cc1` .
-- reply 6

-- ask Output reported inhibition of the molecule `CCN(CC)C1=NS(=O)(=O)C(Sc2ccccc2)=C1c1ccc(OC)cc1` on Protein farnesyltransferase (Rattus norvegicus) (UniProt Q04631+Q02293).
-- reply 5

-- ask Using Protein farnesyltransferase (Rattus norvegicus) (UniProt Q04631+Q02293) as the test system, report measured inhibition of `CCN(CC)C1=NS(=O)(=O)C(c2ccccc2)=C1c1ccc(OC)cc1` .
-- reply 0
